- Study target: Prostaglandin E2 receptor EP4 subtype (Homo sapiens)
- Sequence (P35408 whole entry): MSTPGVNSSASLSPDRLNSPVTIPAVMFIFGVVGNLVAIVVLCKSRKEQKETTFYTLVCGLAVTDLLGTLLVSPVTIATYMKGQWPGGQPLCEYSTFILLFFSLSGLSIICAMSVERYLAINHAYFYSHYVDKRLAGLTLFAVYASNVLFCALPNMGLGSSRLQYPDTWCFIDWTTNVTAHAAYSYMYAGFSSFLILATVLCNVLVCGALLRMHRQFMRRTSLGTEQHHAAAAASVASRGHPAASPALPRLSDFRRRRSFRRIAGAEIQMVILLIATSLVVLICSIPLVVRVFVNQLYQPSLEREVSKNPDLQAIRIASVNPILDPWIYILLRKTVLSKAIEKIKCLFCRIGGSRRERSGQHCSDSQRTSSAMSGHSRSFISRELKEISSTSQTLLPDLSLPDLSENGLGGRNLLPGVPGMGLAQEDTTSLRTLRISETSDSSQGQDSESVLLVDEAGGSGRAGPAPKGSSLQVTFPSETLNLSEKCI
Readout name: pIC50
Scale explanation: pIC50 corresponds to minus log10 of a concentration expressed in moles per litre.

Given COc1cccc(CN2C(=O)CC3(C)CCCC(/C=C/C(=O)NS(=O)(=O)c4ccc(F)c(F)c4)=C23)c1 (stereo unspecified) , state its recorded pIC50.
5.12

* * *

- Study target: UniProt P43115
- Sequence (whole entry): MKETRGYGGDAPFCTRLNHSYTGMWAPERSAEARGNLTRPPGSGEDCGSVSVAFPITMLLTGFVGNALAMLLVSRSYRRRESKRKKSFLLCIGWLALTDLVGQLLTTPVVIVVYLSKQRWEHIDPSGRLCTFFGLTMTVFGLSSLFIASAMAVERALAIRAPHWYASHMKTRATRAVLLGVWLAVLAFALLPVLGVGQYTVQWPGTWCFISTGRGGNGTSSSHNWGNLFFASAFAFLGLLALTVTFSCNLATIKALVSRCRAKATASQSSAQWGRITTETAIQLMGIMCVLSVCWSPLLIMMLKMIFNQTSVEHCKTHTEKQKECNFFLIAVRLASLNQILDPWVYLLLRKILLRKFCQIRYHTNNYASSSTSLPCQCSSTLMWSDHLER
- Assay name: Ratio of IC50 for human EP3 receptor in presence of 10% human serum to IC50 for human EP3 receptor in buffer
Recorded fold change (FC) values for a group of compounds are listed next.
# output: bare number, no unit

Below are worked cases with known answers.
[
  {
    "Compound": "CC12CCCC(/C=C/C(=O)NS(=O)(=O)c3cc(Cl)c(Cl)s3)=C1N(Cc1ccc(Cl)cc1Cl)C(=O)C2 (stereo not drawn)",
    "fold change (FC)": 38.4
  },
  {
    "Compound": "CC12CCCC(/C=C/C(=O)NS(=O)(=O)c3cc(Cl)cc(Cl)c3)=C1N(Cc1ccc(F)c(F)c1)C(=O)C2 (stereo not drawn)",
    "fold change (FC)": 26.8
  },
  {
    "Compound": "C[C@]12CCC[C@@H](CCC(=O)NS(=O)(=O)c3cc(F)c(F)cc3F)[C@H]1N(Cc1ccc(F)c(F)c1)C(=O)C2",
    "fold change (FC)": 25.7
  },
  {
    "Compound": "CC12CCCC(/C=C/C(=O)NS(=O)(=O)c3cc(Cl)cc(Cl)c3)=C1N(Cc1ccc(Cl)cc1Cl)C(=O)C2 (stereo not drawn)",
    "fold change (FC)": 61.2
  }
]

Given CC12CCCC(/C=C/C(=O)NS(=O)(=O)c3cc(Cl)c(Cl)s3)=C1N(Cc1ccc(F)cc1)C(=O)C2 (stereo not drawn) , state its recorded fold change (FC).
3

Again, but for CC12CCCC(/C=C/C(=O)NS(=O)(=O)c3cccs3)=C1N(Cc1ccc(Cl)cc1Cl)C(=O)C2 (stereo not drawn)
25.2

Again, but for CC12CCCC(/C=C/C(=O)NS(=O)(=O)c3cc(F)cc(F)c3)=C1N(Cc1cccc(Cl)c1Cl)C(=O)C2 (stereo not drawn)
33.7

Again, but for CC12CCCC(/C=C/C(=O)NS(=O)(=O)c3ccc(F)cc3)=C1N(Cc1ccc(Cl)cc1Cl)C(=O)C2 (stereo not drawn)
21.2

* * *

Recorded IC50 values for a group of molecules are listed next.
- Study target: Prostaglandin E2 receptor EP3 subtype (Homo sapiens, UniProt P43115)
- Assay name: Displacement of [3H]PGE2 from human EP3 receptor
Provide the reading as a plain figure in nM.

Below are worked cases with known answers.
[
  {
    "Molecule": "CC12CCCC(/C=C/C(=O)NS(=O)(=O)c3cc(Cl)c(Cl)s3)=C1N(Cc1ccc(F)cc1)C(=O)C2 (centres undefined)",
    "Value unit": "nM",
    "Measured value": 3.8
  },
  {
    "Molecule": "COc1cccc(CN2C(=O)CC3(C)CCCC(/C=C/C(=O)NS(=O)(=O)c4cc(F)cc(F)c4)=C23)c1 (centres undefined)",
    "Value unit": "nM",
    "Measured value": 5.6
  }
]

Request - read-out IC50 | tested on Prostaglandin E2 receptor EP3 subtype (Homo sapiens, UniProt P43115) | molecule CC12CCCC(/C=C/C(=O)NS(=O)(=O)c3cc(F)cc(F)c3)=C1N(Cc1ccc(F)c(F)c1)C(=O)C2 (centres undefined)
9.2

Again, but for CC12CCCC(/C=C/C(=O)NS(=O)(=O)c3cc(Cl)c(Cl)s3)=C1N(Cc1cccc(Cl)c1)C(=O)C2 (centres undefined)
2.2
